Test system: GBM0308 CSCs
experiment-description: Dose-response killing of GBM CSCs (PI/Hoechst, Celigo cytometer)
Assay type: cell-based
condition-details: Homo sapiens, read-out: CSC EC50, text; GBM0308 CSCs
pEC50: −log10 of the molar value.
reported-endpoint: pEC50

response.value for COc1cc(OC)c2c(c1)O[C@@]1(c3ccc(Br)cc3)[C@H](c3ccccc3)[C@@H](C(=O)NS(C)(=O)=O)[C@@H](O)[C@@]21O [(−)-19] (field: pEC50) = > 6.90

====

Tested on: GBM0308 CSCs
experiment-description: Dose-response killing of GBM CSCs (PI/Hoechst, Celigo cytometer)
Type: cell-based
condition-details: Table 1; GBM0308 CSCs, 72 h treatment; relative EC50, given for compounds causing at least 50% cell death; read-out: CSCs EC50
List of EC50 values.
// units = nM; emit number, no label

Completed entries (count: 2):
>  <compound>
CONC(=O)[C@H]1[C@@H](O)[C@@]2(O)c3c(OC)cc(OC)cc3O[C@@]2(c2ccc(Br)cc2)[C@@H]1c1ccccc1 [(−)-7, SDS-1-021]

>  <EC50 (nM)>
7

$$$$
>  <compound>
COc1ccc([C@@]23Oc4cc(OC)cc(OC)c4[C@]2(O)[C@H](O)[C@H](C(=O)N(C)OC)[C@H]3c2ccccc2)cc1 (racemic) [rac-6, rohinitib, reference compound]

>  <EC50 (nM)>
922

$$$$

# evaluate next
Looking up COC(=O)[C@H]1[C@@H](O)[C@@]2(O)c3c(OC)cc(OC)cc3O[C@@]2(c2ccc(Br)cc2)[C@@H]1c1ccccc1 [(−)-9, reference compound] , I found its EC50 recorded as 151
